Biological target: C5a anaphylatoxin chemotactic receptor 1 (Homo sapiens, UniProt P21730)
Sequence (P21730 whole entry): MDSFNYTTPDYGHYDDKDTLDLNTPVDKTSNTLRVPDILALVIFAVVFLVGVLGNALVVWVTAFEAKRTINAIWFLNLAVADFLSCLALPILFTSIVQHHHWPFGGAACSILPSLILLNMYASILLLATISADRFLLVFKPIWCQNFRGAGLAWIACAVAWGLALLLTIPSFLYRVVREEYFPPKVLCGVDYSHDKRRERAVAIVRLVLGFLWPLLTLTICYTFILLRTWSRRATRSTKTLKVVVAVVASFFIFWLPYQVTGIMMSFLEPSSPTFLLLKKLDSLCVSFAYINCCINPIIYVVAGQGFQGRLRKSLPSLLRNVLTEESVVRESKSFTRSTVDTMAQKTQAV
Assay: Antagonist activity at human recombinant C5a receptor in HEK cells assessed as inhibition of C5a-induced calcium mobilization
Assay type: functional, cell-based, HEK293
Readout: IC50 (µM)
Give the number; µM is assumed, so skip it.

Can you share its IC50? I mean this molecule: COc1ccc(N(C(=O)c2ccccc2)C(C(=O)NC(C)CN(C)C)c2ccccc2F)c(OC)c1 (centres undefined)
1

Can you share its IC50? I mean this molecule: COc1ccc(N(C(=O)c2occc2Cl)C(C(=O)NC[C@@H](C)O)c2ccccc2F)c(OC)c1 (some centres undefined)
0.2

Can you share its IC50? I mean this molecule: COc1ccc(N(C(=O)c2occc2CN(C)C)C(C(=O)NC[C@@H](C)O)c2ccccc2F)c(OC)c1 (some centres undefined)
3.16

Can you share its IC50? I mean this molecule: COc1ccc(N(C(=O)c2ccco2)C(C(=O)NC2CCCC2)c2ccccc2F)c(OC)c1 (centres undefined)
0.126

Can you share its IC50? I mean this molecule: COCc1ccoc1C(=O)N(c1ccc(OC)cc1OC)C(C(=O)NC[C@@H](C)O)c1ccccc1F (some centres undefined)
0.1

Can you share its IC50? I mean this molecule: COc1ccc(N(C(=O)c2ccoc2Cl)C(C(=O)NC[C@@H](C)O)c2ccccc2F)c(OC)c1 (some centres undefined)
0.316

Can you share its IC50? I mean this molecule: COc1ccc(N(C(=O)c2ccccc2)C(C(=O)NC2CCCC2)c2ccccc2F)c(OC)c1 (centres undefined)
0.0251

---

experiment: Metabolic stability in human liver microsomes assessed as intrinsic clearance; conditions: microsomes
Readout: microsomal CLint (µL/min/mg)
Give the number; µL/min/mg is assumed, so skip it.

Can you share its microsomal CLint? I mean this molecule: COc1ccc(N(C(=O)c2occc2CO)C(C(=O)NC[C@@H](C)O)c2ccccc2F)c(OC)c1 (stereo partly specified)
12

---

assay: Lipophilicity, log D at pH 7.4; conditions: buffer
Each entry gets criterion not met if its logD stays under 2, and criterion met if its logD is 2 or above.

I'd appreciate it if you could say whether COc1ccc(N(C(=O)c2ccoc2Cl)C(C(=O)NC[C@@H](C)O)c2ccccc2F)c(OC)c1 (stereo partly specified) has logD at least equal to 2.
criterion met

I'd appreciate it if you could say whether COc1ccc(N(C(=O)c2ccccc2)C(C(=O)NC[C@@H](C)O)c2ccccc2F)c(OC)c1 (stereo partly specified) has logD at least equal to 2.
criterion met

I'd appreciate it if you could say whether COc1ccc(N(C(=O)c2ccccc2)C(C(=O)NC2CCCC2)c2ccccc2F)c(OC)c1 (stereo unspecified) has logD at least equal to 2.
criterion met

I'd appreciate it if you could say whether COc1ccc(N(C(=O)c2occc2CO)C(C(=O)NC[C@@H](C)O)c2ccccc2F)c(OC)c1 (stereo partly specified) has logD at least equal to 2.
criterion not met

I'd appreciate it if you could say whether COc1ccc(N(C(=O)c2occc2Cl)C(C(=O)NC[C@@H](C)O)c2ccccc2F)c(OC)c1 (stereo partly specified) has logD at least equal to 2.
criterion met

---

Answer each item with its documented hepatocyte CLint.
assay: Metabolic stability in Sprague-Dawley rat hepatocytes assessed as intrinsic clearance measured per 10^6 cells
Give the number; µL/min/1e6 cells is assumed, so skip it.

Can you share its hepatocyte CLint? I mean this compound: COc1ccc(N(C(=O)c2occc2Cl)C(C(=O)NC[C@@H](C)O)c2ccccc2F)c(OC)c1 (stereo not given in full)
59

Can you share its hepatocyte CLint? I mean this compound: COc1ccc(N(C(=O)c2ccoc2Cl)C(C(=O)NC[C@@H](C)O)c2ccccc2F)c(OC)c1 (stereo not given in full)
33

Can you share its hepatocyte CLint? I mean this compound: COc1ccc(N(C(=O)c2ccoc2C)C(C(=O)NC[C@@H](C)O)c2ccccc2F)c(OC)c1 (stereo not given in full)
75

Can you share its hepatocyte CLint? I mean this compound: COCc1ccoc1C(=O)N(c1ccc(OC)cc1OC)C(C(=O)NC[C@@H](C)O)c1ccccc1F (stereo not given in full)
35

Can you share its hepatocyte CLint? I mean this compound: COc1ccc(N(C(=O)c2ccccc2)C(C(=O)NC(C)CN(C)C)c2ccccc2F)c(OC)c1 (stereo not given)
33

Can you share its hepatocyte CLint? I mean this compound: COc1ccc(N(C(=O)c2occc2CO)C(C(=O)NC[C@@H](C)O)c2ccccc2F)c(OC)c1 (stereo not given in full)
8

Can you share its hepatocyte CLint? I mean this compound: COc1ccc(N(C(=O)c2occc2C)C(C(=O)NC[C@@H](C)O)c2ccccc2F)c(OC)c1 (stereo not given in full)
87

---

test: Metabolic stability in human liver microsomes assessed as intrinsic clearance; conditions: liver microsomes
Readout: microsomal CLint (µL/min/mg)
Give the number; µL/min/mg is assumed, so skip it.

Can you share its microsomal CLint? I mean this compound: COc1ccc(N(C(=O)c2occc2C)C(C(=O)NC[C@@H](C)O)c2ccccc2F)c(OC)c1 (some centres undefined)
126

Can you share its microsomal CLint? I mean this compound: COc1ccc(N(C(=O)c2occc2CN(C)C)C(C(=O)NC[C@@H](C)O)c2ccccc2F)c(OC)c1 (some centres undefined)
12

Can you share its microsomal CLint? I mean this compound: COc1ccc(N(C(=O)c2occc2Cl)C(C(=O)NC[C@@H](C)O)c2ccccc2F)c(OC)c1 (some centres undefined)
148

Can you share its microsomal CLint? I mean this compound: COc1ccc(N(C(=O)c2ccoc2Cl)C(C(=O)NC[C@@H](C)O)c2ccccc2F)c(OC)c1 (some centres undefined)
48

Can you share its microsomal CLint? I mean this compound: COc1ccc(N(C(=O)c2ccccc2)C(C(=O)NC[C@@H](C)O)c2ccccc2F)c(OC)c1 (some centres undefined)
104

Can you share its microsomal CLint? I mean this compound: COc1ccc(N(C(=O)c2ccccc2)C(C(=O)NC(C)CN(C)C)c2ccccc2F)c(OC)c1 (centres undefined)
135

Can you share its microsomal CLint? I mean this compound: COCc1ccoc1C(=O)N(c1ccc(OC)cc1OC)C(C(=O)NC[C@@H](C)O)c1ccccc1F (some centres undefined)
76

Can you share its microsomal CLint? I mean this compound: COc1ccc(N(C(=O)c2ccoc2C)C(C(=O)NC[C@@H](C)O)c2ccccc2F)c(OC)c1 (some centres undefined)
134

---

molecular target: C5a anaphylatoxin chemotactic receptor 1 (Homo sapiens); test: Antagonist activity at human recombinant C5a receptor in HEK cells assessed as inhibition of C5a-induced calcium mobilization; type: functional, cell-based, HEK293
Readout: pIC50
Quick note: pIC50 values are minus log10 of concentrations in mol/L.

Can you share its pIC50? I mean this compound: COc1ccc(N(C(=O)c2occc2C)C(C(=O)NC[C@@H](C)O)c2ccccc2F)c(OC)c1 (stereo partly specified)
7.70

Can you share its pIC50? I mean this compound: COc1ccc(N(C(C)=O)C(C(=O)NC2CCCC2)c2ccccc2F)c(OC)c1 (stereo unspecified)
6.10

Can you share its pIC50? I mean this compound: COc1ccc(N(C(=O)c2ccccc2)C(C(=O)NC[C@@H](C)O)c2ccccc2F)c(OC)c1 (stereo partly specified)
7.20

Can you share its pIC50? I mean this compound: COc1ccc(N(C(=O)c2ccoc2C)C(C(=O)NC[C@@H](C)O)c2ccccc2F)c(OC)c1 (stereo partly specified)
7.40

---

experiment: Metabolic stability in Sprague-Dawley rat hepatocytes assessed as intrinsic clearance measured per 10^6 cells
Answer each item with its documented hepatocyte CLint.

Can you share its hepatocyte CLint? I mean this compound: COc1ccc(N(C(=O)c2ccco2)C(C(=O)NC2CCCC2)c2ccccc2F)c(OC)c1 (stereo not drawn)
> 150 µL/min/1e6 cells

Can you share its hepatocyte CLint? I mean this compound: COc1ccc(N(C(=O)c2ccccc2)C(C(=O)NC[C@@H](C)O)c2ccccc2F)c(OC)c1 (stereo partly drawn)
> 150 µL/min/1e6 cells

Can you share its hepatocyte CLint? I mean this compound: COc1ccc(N(C(=O)c2occc2CN(C)C)C(C(=O)NC[C@@H](C)O)c2ccccc2F)c(OC)c1 (stereo partly drawn)
< 3 µL/min/1e6 cells
